- System: WNK4;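 also: KINOMEscan kinase panel screen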
- Run parameters: concentration: 1 μM,replicates: in singlicate; n = 1
Endpoint: %Inh (%)
The answer is to be given in %; state only the numeric part.

Per the records, this compound ( CN(c1ccc2c(c1)nc(NCc1ccc(F)cc1)n2C)c1ccnc(Nc2ccc(CS(C)(=O)=O)cc2)n1.Cl ) has %Inh equal to 0

Per the records, this compound ( Cc1cccc2c(-c3ccncc3)c(-c3ccc(F)cc3)nn12.Cl ) has %Inh equal to 0

Per the records, this compound ( O=C(Nc1n[nH]c2cc(-c3ccco3)ccc12)C1CC1 ) has %Inh equal to 0

Per the records, this compound ( O=C(NCC1CC1)c1ccc(-c2cc(C(=O)NC3CC3)ccc2F)cc1 ) has %Inh equal to 10

Per the records, this compound ( O=C(Nc1ccccc1)c1cccc(Oc2ccc3nccn3n2)c1 ) has %Inh equal to 36

Per the records, this compound ( Cc1ccc(Nc2ccnc(Nc3ccc4c(c3)CS(=O)(=O)C4)n2)cc1O.Cl ) has %Inh equal to 9

Per the records, this compound ( CS(=O)c1ccc(-c2coc3ccc(-c4n[nH]c(=O)o4)cc23)cc1 (stereo not drawn) ) has %Inh equal to 0

Per the records, this compound ( Cc1cccc(-c2nc(Nc3ccncc3)c3sccc3n2)n1 ) has %Inh equal to 17

Per the records, this compound ( COc1ccc(Nc2nccc(N3CCC(NC(=O)c4cccc(C#N)c4)C3)n2)cc1 (stereo not drawn) ) has %Inh equal to 0
